test-system: matriptase (Homo sapiens)
Construct: Gels containing the 70-kDa active matriptase was sliced out, and eluted from gel; from tissue; host or cells: human milk
Sequence (Q9Y5Y6 615-855 limits assumed): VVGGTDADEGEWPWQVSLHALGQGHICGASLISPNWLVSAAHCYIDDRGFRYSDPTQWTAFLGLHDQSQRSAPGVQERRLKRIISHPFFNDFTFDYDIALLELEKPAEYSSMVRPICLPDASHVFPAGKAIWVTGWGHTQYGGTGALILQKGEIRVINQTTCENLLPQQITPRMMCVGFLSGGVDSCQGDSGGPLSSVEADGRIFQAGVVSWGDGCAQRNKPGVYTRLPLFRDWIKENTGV
Sequence (Q9Y5Y6 190-614 partner limits assumed): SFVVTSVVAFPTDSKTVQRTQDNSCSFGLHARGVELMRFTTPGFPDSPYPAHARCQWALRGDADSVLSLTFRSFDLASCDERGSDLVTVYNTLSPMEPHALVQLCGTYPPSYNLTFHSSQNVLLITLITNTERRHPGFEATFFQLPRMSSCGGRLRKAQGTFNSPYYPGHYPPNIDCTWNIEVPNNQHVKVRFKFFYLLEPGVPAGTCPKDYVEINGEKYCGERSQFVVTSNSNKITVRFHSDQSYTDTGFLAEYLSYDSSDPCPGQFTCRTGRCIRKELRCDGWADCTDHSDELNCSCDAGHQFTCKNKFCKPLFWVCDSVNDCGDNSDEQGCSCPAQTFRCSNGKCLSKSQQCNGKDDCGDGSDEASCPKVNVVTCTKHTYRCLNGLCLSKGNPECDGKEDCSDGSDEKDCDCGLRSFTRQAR
assay-text: Determination of inhibitory activity, Ki by Dixon plotting, matriptase
Type: biochemical
experimental-conditions: substrate N-t-Boc-Gln-Ala-Arg-AMC, pH 8.5, room temperature; read-out: Ki Matriptase

# compound, Ki / nM
rows = [
    ("N=C(N)c1ccc(OCCCCCOc2ccc(C(=N)N)cc2)cc1", 1160),
    ("N=C(N)c1ccc(Oc2ccc(Oc3ccc(C(=N)N)cc3)cc2)cc1", 208),
    ("N=C(N)c1ccc(/N=N/c2c(O)ccc3cc4c(/N=N/c5ccc(C(=N)N)cc5)c(O)ccc4cc23)cc1", 4500),
    ("N=C(N)c1ccc(OCCCCCCOc2ccc(C(=N)N)cc2I)cc1", 191),
    ("N=C(N)c1ccc(OCCCCCCOc2ccc(C(=N)N)cc2)cc1 [Compound 1, hexamidine, reference compound]", 924),
    ("N=C(N)c1ccc(OCCCOc2ccc(C(=N)N)cc2Br)c(Br)c1", 535),
]

* * *

pKi: −log10 of the molar value.
Parameter pKi, tested on UniProt:P00735, listed per item.

# compound, pKi
data = [
    ("N=C(N)c1ccc(OCCCOc2ccc(C(=N)N)cc2Br)c(Br)c1", 6.02),
    ("N=C(N)c1ccc(Oc2ccc(Oc3ccc(C(=N)N)cc3)cc2)cc1", 5.57),
    ("N=C(N)c1ccc(OCCCCCCOc2ccc(C(=N)N)cc2)cc1 [Compound 1, hexamidine, reference compound]", 6.65),
]
